Each entry below carries its reported melting point.

// known answers, use as guide
1. Cc1cc(C(=O)Nc2ccccc2C)n(C)n1 :: 158 to 160 °C
2. CC(C)C[C@@H](CO)NC(=O)[C@H](Cc1c[nH]cn1)NC(=O)[C@H](CSSc1ncccc1[N+](=O)[O-])NC(=O)OC(C)(C)C :: 185 to 188 °C
3. CCCCCCC(=O)C(NC(=O)C=Cc1ccccc1)C(=O)OC (centres undefined) :: 85 to 86 °C
4. COC(=O)CCCc1cc2nc(Cl)ccc2n1S(=O)(=O)c1ccc2c(c1)OCCN2C :: 106 to 110 °C
5. CCCn1c(=O)nc(SC)c2c1ncn2COCc1ccccc1 :: 167 to 168 °C

Query block: Record request: melting point value, item `Cc1nccn1-c1ccc(COc2cccc(C3(C(N)=O)CCOCC3)c2)cc1`
Result block: 183 to 186 °C

Query block: Record request: melting point value, item `Cc1ccccc1-c1cc(-n2cncn2)ncc1C(=O)N(C)Cc1cc(C(F)(F)F)cc(C(F)(F)F)c1`
Result block: 91 to 93 °C

Query block: Record request: melting point value, item `ClCC=C(c1ccc(Br)cc1)c1cccnc1`
Result block: 156 to 159 °C

Query block: Record request: melting point value, item `COc1ccc(NC(=O)C(C)(C)c2ccc(S(=O)(=O)/C=C/C#N)cc2)cc1`
Result block: 123 to 126 °C

Query block: Record request: melting point value, item `COC(=O)c1cccc(S(=O)(=O)C2CCN(CCc3ccc(F)cc3F)CC2)c1`
Result block: 116 to 117 °C

Query block: Record request: melting point value, item `COCc1nc2cccc(C(=O)OC)c2n1Cc1ccc(-c2ccccc2-c2nnn[nH]2)cc1`
Result block: 191 to 194 °C

Query block: Record request: melting point value, item `CC(C)(C)c1ccc(N2CCCN(c3cc[nH]c(=S)c3C#N)CC2)cc1`
Result block: 257 to 258 °C

Query block: Record request: melting point value, item `O=C(Cc1ccc(Br)cc1)c1ccc(Cl)cc1Cl`
Result block: 69 to 70 °C

Query block: Record request: melting point value, item CCN1C(=O)C(C(=O)Nc2ccc(F)cc2)c2cc3c(cc21)CC(C)O3 (centres undefined)
Result block: 196 to 197 °C

Query block: Record request: melting point value, item `COC(=O)c1ccc(OC(=O)c2ccc(C(=O)Oc3ccc(C(=O)OC)cc3)cc2)cc1`
Result block: 243 to 245 °C

====

Each entry below carries its reported melting point.

1. CCOC(=O)c1ccc2nccc(Cl)c2c1 :: 84 to 85 °C
2. Cc1cc(O)ccc1-n1cc(C(=O)O)c(=O)cc1C1=CCCC1 :: 211 to 213 °C
3. COc1cc2c(cc1OC)C(=C(C#N)SCC(CN1CCOCC1)OC(=O)c1ccccc1)NCC2 (centres undefined) :: 144 °C

Query block: Record request: melting point value, item `O=C1NCCN1c1ccc(C2CCN(C(=O)C(F)(F)F)CC2)cc1`
Result block: 198 to 201 °C

Query block: Record request: melting point value, item `Nc1sc2c(c1C(=O)c1ccc(I)c3ccccc13)CCC2`
Result block: 253 to 255 °C

====

Endpoint label: melting point

// known answers, use as guide
1. CC(C)(C)OC(=O)Nn1ccc2ccccc21 :: 112 to 116 °C
2. CNC12CCCCC1CCc1cc(O)ccc12 (stereo unspecified) :: 191 °C
3. CC(C)(CO)CCCCCCCCCCCC(C)(C)CO :: 45 to 47 °C
4. CCC(C)(C)OC(=O)NC(C)(Cc1c[nH]c2ccccc12)C(=O)NCCc1ccc(OC)cc1 (stereo unspecified) :: 128 to 130 °C
5. CC(O)=C1C(=O)CC(c2ccccc2C)CC1=O (stereo unspecified) :: 78 to 81 °C

Now for another entry.
Query block: Record request: melting point value, item CC(C(=O)N1CCCC1C(=O)O)N(CC(=O)C(Cc1ccccc1)NC(=O)c1ccccc1)C(=O)OCc1ccccc1 (stereo unspecified)
Result block: 70 to 91 °C

====

Endpoint label: melting point

// known answers, use as guide
1) O=c1c2c(nc3ccc(Br)cn13)C(=Cc1ccc(Cl)cc1Cl)CC2 :: 164 to 166 °C
2) Cc1nc2c(OCc3ccccc3F)cccn2c1CO :: 151 to 153 °C
3) CC(C)(C)Nc1nc(-c2ccc(F)cc2)c(-c2ccc(S(C)(=O)=O)cc2)s1 :: 250 to 253 °C
4) Clc1ccc(-c2noc(CCC#Cc3ccccn3)n2)cc1 :: 75 to 77 °C
5) O=c1[nH]c2ncc(-c3ccc(-c4nc[nH]n4)cc3)nc2n1CC1CCCCC1 :: 336 to 338 °C

Now for another entry.
Query block: Record request: melting point value, item `ClCc1ccc(-c2ccccc2)nc1`
Result block: 95 to 96 °C

====

Endpoint label: melting point

1. Cc1cc(-c2ccc(Cl)cc2)nc2c(C(=O)O)cnn12 :: 233 to 235 °C
2. COC1=CC2=CCC3C(CCC4(C)C(C5=NC(OCc6ccccc6)OC5)=CCC34)C2(C)CC1 (centres undefined) :: 115 to 125 °C
3. COc1cccc(NC(=O)N[C@H]2C[C@@](N)(C(=O)O)[C@@H]3[C@@H](C(=O)O)[C@@H]32)c1 (relative stereo) :: > 250 °C
4. CCC(Oc1ccc2oc3cc(Cl)ccc3c2c1)C(=O)O (centres undefined) :: 143 to 145 °C
5. CCn1c(N(C)C)nc2cc(C(F)(F)F)c(Cl)c([N+](=O)[O-])c21 :: 121 to 122 °C
6. COC(=S)NCc1cn(-c2ccc(-n3ccc(C=O)c3)cc2)nn1 :: 160 to 162 °C

Query block: Record request: melting point value, item `CCN(CCOc1cccc2ccccc12)c1ccc(C(=O)O)cc1`
Result block: 205 to 206 °C

Query block: Record request: melting point value, item CCn1cc(C(=O)O)c(=O)c2cc(F)c(N3C[C@@H](N)[C@@H](C)C3)c(Cl)c21 (relative stereo)
Result block: 222 to 224 °C

Query block: Record request: melting point value, item `COc1ccc(OC)c(S(=O)(=O)n2c(CCC(=O)O)cc3cc(Cl)ccc32)c1`
Result block: 185 to 189 °C

====

Each entry below carries its reported melting point.

// known answers, use as guide
1. CCCCCCC(C)(C)c1cc(O)cc(O)c1 :: 93 to 95 °C
2. COC(=O)c1cc(N(CCO)CCO)c(S(C)(=O)=O)cc1[N+](=O)[O-] :: 99 to 100 °C
3. O=P(c1ccccc1)(c1ccccc1)c1nnc(P(=O)(c2ccccc2)c2ccccc2)c2ccccc12 :: 225 to 228 °C
4. CC1CC(=O)N(c2cc(C(C)(C)C)c(O)c(C(C)(C)C)c2)C1 (stereo unspecified) :: 157 to 159 °C
5. CC1=NC(c2ccccc2)c2c(cc[nH]c2=O)N1 (stereo unspecified) :: 263 to 264 °C
6. O=C1CC(/C=C/c2ccccc2)Nc2ccccc2N1Cc1ccccc1 (stereo unspecified) :: 186 to 187 °C
7. O=S1(=O)CC2C(C1)N(CCO)CCN2CCO (stereo unspecified) :: 145 to 147 °C
8. ClCc1coc(-c2ccc(OCc3ccccc3)cc2)n1 :: 119 to 120 °C
9. CC1(C)CCc2c(N3CCCC3)nc3sc4c(NCCN5CCOCC5)ncnc4c3c2C1 :: 173 to 174 °C
10. COc1cc(C#N)ccc1C :: 51 to 52.5 °C

Now for another entry.
Query block: Record request: melting point value, item `COc1ccc2c(=O)c(C=O)coc2c1`
Result block: 188 to 190 °C

====

Each entry below carries its reported melting point.

// known answers, use as guide
1. CN1CCCc2cc(OC(=O)Nc3ccc(Br)cc3)ccc21 :: 155 °C
2. CCC1Cc2cc(OCC(=O)O)cc(Br)c2C1=O (stereo not given) :: 146 to 148 °C
3. CNCC(=O)NC(=O)OC(C)(C)C :: 103 °C
4. CC(C)c1nc(Cl)nc(-c2ccc(F)cc2)c1Br :: 99 to 101 °C
5. CCC(C(=O)c1ccc(C(C)C)c(OS(N)(=O)=O)c1C(C)C)c1ccccc1 (stereo not given) :: 142 to 145 °C
6. CC(C)OC(=O)N1CCC(NC(=O)N2CCn3c(c(C(N)=O)c(Cl)c3-c3ccccc3)C2)CC1 :: 166 to 167 °C
7. CCCC(=O)c1cnc2c(OC)cccc2c1Cl :: 114 to 116 °C
8. CCCCOc1cc2cc(CO)c(CO)c(-c3ccnc(Cl)c3)c2cc1OC :: 93 to 97 °C
9. CC(=O)NS(=O)(=O)c1cc(C(=O)CCl)ccc1Cl :: 177 °C

Now for another entry.
Query block: Record request: melting point value, item `O=C(NC(=O)c1c(F)cccc1F)Nc1cc(Cl)c(OCC(F)(F)F)cc1F`
Result block: 201 to 202 °C
